- Tested on: A549
- protocol: NCI tumour cell line growth inhibition, 48 h
Calls of active or inactive are those of the source. No stated cut-off is given here; in the data, active = GI50 up to about 1.1 µM and inactive = higher.
Classes to choose from: active, inactive

[Q] What did this assay record as the result for `Cc1n[nH]c(=O)c2cc(-c3ccccc3)[nH]c12` ?
[A] inactive

[Q] Try this compound next: COc1ccc(C2S/C(=C\c3ccccc3)C(=O)N2NC(=O)Cc2ccccc2)cc1 (centres undefined)
[A] inactive

[Q] How about this compound: Cc1[nH]c2ccccc2c1C1Cc2ccccc2N1C(=O)C#Cc1ccc([N+](=O)[O-])cc1 (centres undefined)
[A] inactive

[Q] Ok, now `c1c[nH]c(-c2ccc(-c3ccc[nH]3)c3nsnc23)c1`
[A] inactive

[Q] // repeat for `CC1=C(O)C(=O)C=C2C1=CC=C1[C@@]2(C)CC[C@@]2(C)[C@@H]3C[C@](C)(C(=O)O)CC[C@]3(C)CC[C@]12C` and report
[A] active

[Q] Quick one: `CCN(CC)CCNC(=O)c1cc2cc(NC(=O)c3cc4cc(NC(=O)c5cc6cc([N+](=O)[O-])ccc6[nH]5)ccc4[nH]3)ccc2[nH]1`
[A] inactive
